- assayed-system: SMARCC2 C145 (Q8TAQ2) (Homo sapiens)
- Sequence (Q8TAQ2 whole entry): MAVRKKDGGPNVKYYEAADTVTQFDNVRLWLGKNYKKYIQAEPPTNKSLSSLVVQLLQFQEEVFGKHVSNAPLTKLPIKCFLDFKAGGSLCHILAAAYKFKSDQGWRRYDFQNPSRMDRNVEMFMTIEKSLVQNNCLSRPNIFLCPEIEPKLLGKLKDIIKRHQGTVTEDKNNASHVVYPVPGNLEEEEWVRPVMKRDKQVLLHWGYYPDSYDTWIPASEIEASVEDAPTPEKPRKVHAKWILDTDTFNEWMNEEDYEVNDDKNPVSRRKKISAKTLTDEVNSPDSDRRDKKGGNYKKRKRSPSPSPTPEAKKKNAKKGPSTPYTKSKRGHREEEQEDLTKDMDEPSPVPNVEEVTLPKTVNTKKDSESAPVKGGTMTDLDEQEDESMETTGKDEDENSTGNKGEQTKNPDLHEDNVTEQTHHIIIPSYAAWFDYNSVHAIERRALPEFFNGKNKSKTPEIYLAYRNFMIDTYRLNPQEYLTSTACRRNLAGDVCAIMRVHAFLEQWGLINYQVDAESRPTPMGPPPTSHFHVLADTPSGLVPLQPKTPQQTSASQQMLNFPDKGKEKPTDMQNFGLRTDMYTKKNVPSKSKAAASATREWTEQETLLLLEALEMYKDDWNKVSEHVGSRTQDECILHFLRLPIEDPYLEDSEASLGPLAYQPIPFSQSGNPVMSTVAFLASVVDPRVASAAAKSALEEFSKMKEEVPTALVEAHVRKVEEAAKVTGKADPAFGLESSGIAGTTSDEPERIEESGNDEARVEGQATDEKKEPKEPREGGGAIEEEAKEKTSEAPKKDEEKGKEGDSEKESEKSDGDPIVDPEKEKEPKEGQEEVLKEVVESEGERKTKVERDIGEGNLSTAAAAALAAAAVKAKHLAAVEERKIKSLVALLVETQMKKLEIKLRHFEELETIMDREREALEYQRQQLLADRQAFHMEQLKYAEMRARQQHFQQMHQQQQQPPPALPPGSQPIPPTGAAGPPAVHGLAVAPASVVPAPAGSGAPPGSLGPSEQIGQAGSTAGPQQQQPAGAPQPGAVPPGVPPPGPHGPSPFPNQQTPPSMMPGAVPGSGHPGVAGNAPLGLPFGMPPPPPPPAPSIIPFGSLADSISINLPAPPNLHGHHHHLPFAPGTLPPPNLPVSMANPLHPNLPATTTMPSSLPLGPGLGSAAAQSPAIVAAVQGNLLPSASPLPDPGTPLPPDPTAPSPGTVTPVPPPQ
- measurement-description: Competitive isoTOP-ABPP, cell lysates
- Assay type: binding
- experimental-parameters: 500 μm in-vitro ramos_231
isoTOP-ABPP ratio (reactivity profile), Q8TAQ2_C145 of 1 or higher: true. Under 1: false.

> print(dat)
                                   molecule  label
1  CC(Cl)C(=O)Nc1cc(C(F)(F)F)cc(C(F)(F)F)c1 (stereo not shown) [compound 25]  false
2         CC(C)CCOCCNC(=O)CCl [compound 27]  false
3      COc1ccccc1OCCNC(=O)CCl [compound 28]   true
4  O=C(CCl)NC12CC3CC(CC(C3)C1)C2 [compound 21]   true
5  O=C(CCl)N1CCC(C(O)(c2ccccc2)c2ccccc2)CC1 [compound 20]   true

Now look at this entry.
Exercise: Threshold query (isoTOP-ABPP ratio (reactivity profile), Q8TAQ2_C145 >= 1) on N#C/C(=C\c1cc(C(F)(F)F)cc(C(F)(F)F)c1)C(N)=O [compound 23]
Key: true
